tested on: Adhesion; assay: Monocyte adhesion to endothelial cells (HUVEC); assay type: cell-based, human; conditions: calcein-labelled PBMC on HUVEC, TNF-α stimulated; peptide 10 nM-100 µM
Property Name: IC50

> print(dat)
                                  substance  measured.value
1  H-LGGEKLFLLDGRNQLC-OH (disulfide (positions not given here)) [MN20050]        > 100 µM

----------
system: TNF-α; experiment: LPS-induced TNF-α release by human PBMC (sandwich ELISA); assay type: cell-based; details: human PBMC + LPS (S. typhosa), 18-24 h, 37°C, peptide 10 nM-100 µM in triplicate, IC50 estimated from graph, representative set, one volunteer
pIC50: −log10 of the molar value.
Property Name: pIC50

> print(dat)
                                  substance  property.name  measured.value
1  H-LGGEKLFLLDGRNQLC-OH (disulfide (positions not given here)) [MN20050]          pIC50          < 4.00
